A collection of molecules and their measured GI50
- Tested on: A549
- EXPERIMENT NOTES: NCI tumour cell line growth inhibition, 48 h
Calls of active or inactive are those of the source. Cut-off read from the data, not from the text of the source: active = GI50 up to about 1.1 µM and inactive = higher. Residues, ends and D or L forms follow the SMILES beside them. *: point of attachment. Boc = CC(C)(C)OC(=O)*; OBn = c1ccc(CO*)cc1
EXPERIMENTAL READOUT: GI50

INSERT INTO results (molecule, measured_on, experimental_readout, data_value) VALUES
  ('NC(=O)C(=CNC(=S)Nc1ccc(S(=O)(=O)Nc2ccccn2)cc1)C(N)=O', 'A549', 'GI50', '> 100 µM (inactive)'),
  ('CCCCCCCCCCCCCCCCCc1cccc(OCOCCOC)c1CO', 'A549', 'GI50', '> 100 µM (inactive)'),
  ('O=C(c1ccc(Cl)cc1)C(O)c1ccc(Cl)cc1 (stereo unspecified)', 'A549', 'GI50', '59.7 µM (inactive)'),
  ('Cc1cc(C)nc(NS(=O)(=O)c2ccc(Nc3c4ccccc4nc4c(C(=O)N5CCN(CCOS(C)(=O)=O)CC5)ccc(Cl)c34)cc2)n1', 'A549', 'GI50', '> 100 µM (inactive)'),
  ('O=C(O)CCc1ccc(-c2ccccc2)[nH]1', 'A549', 'GI50', '> 100 µM (inactive)'),
  ('CCN(CC)C1CCC(C2c3cc4c(cc3OC(N3CCOCC3)C2C)OCO4)CC1 (stereo unspecified)', 'A549', 'GI50', '27.5 µM (inactive)'),
  ('CCOC(=O)c1sc2nc(SC)nc(Nc3ccc4c(c3)OCCCO4)c2c1N', 'A549', 'GI50', '8.47 µM (inactive)'),
  ('N=c1oc2ccccc2cc1-c1nc2ccccc2c(=O)[nH]1', 'A549', 'GI50', '78.3 µM (inactive)'),
  ('CC(=O)N1CCN(C23OC4(N5CCN(C(C)=O)CC5)C5C6CC(C7C6C4C72)C53)CC1 (stereo unspecified)', 'A549', 'GI50', '> 100 µM (inactive)'),
  ('O=C(CCc1ccc(O)c(O)c1)NCCc1cc(O)cc(OCc2ccccc2)c1', 'A549', 'GI50', '52.6 µM (inactive)'),
  ('CN(C)C1(C(=O)O)CC1', 'A549', 'GI50', '> 100 µM (inactive)'),
  ('CC1NOC(=O)C1/N=N/c1ccc(Cl)cc1Cl (stereo unspecified)', 'A549', 'GI50', '23 µM (inactive)'),
  ('CC(C)CC(NC(=O)OC(C)(C)C)C(=O)NC(CC(=O)OCc1ccccc1)C(=O)OCc1ccccc1 (stereo not drawn) (Boc-Leu-Asp(OBn)-OBn; configuration not given here)', 'A549', 'GI50', '> 100 µM (inactive)'),
  ('CCOC(=O)C(NC(=O)c1ccccc1)(Nc1ccc(S(=O)(=O)Nc2cc(C)on2)cc1)C(F)(F)F (stereo unspecified)', 'A549', 'GI50', '> 100 µM (inactive)'),
  ('O=C1Nc2cc(Cl)ccc2N=CC1NC(=O)C(c1ccccc1)c1ccccc1Cl (stereo unspecified)', 'A549', 'GI50', '> 100 µM (inactive)'),
  ('CC(C)C(NC(=O)C(Cc1ccccc1)NC(=O)[C@H]1CCC[C@H]1NC(=O)C(Cc1ccc(OC(C)(C)C)cc1)NC(=O)OC(C)(C)C)C(N)=O (stereo partly specified)', 'A549', 'GI50', '20.1 µM (inactive)');

---

- Tested on: RXF 393
- EXPERIMENT NOTES: NCI tumour cell line growth inhibition, 48 h
Calls of active or inactive are those of the source. No stated cut-off is given here; in the data, active = GI50 up to about 1.1 µM and inactive = higher.
EXPERIMENTAL READOUT: GI50

INSERT INTO measurements (compound, measured_on, data_value) VALUES
  ('O=c1c(C(c2ccc3ccccc3c2)c2c(O)oc3cc(O)ccc3c2=O)c(O)oc2cc(O)ccc12', 'RXF 393', '88.5 µM (inactive)'),
  ('Cc1ccc2c(=O)c(-c3nnc(N)s3)c[nH]c2n1', 'RXF 393', '83.4 µM (inactive)'),
  ('C[C@]12CCC(=O)C(O)=C1CC[C@@H]1C2CC[C@]2(C)Nc3c(cnn3-c3ccccc3)CC12 (some centres not stated)', 'RXF 393', '55.1 µM (inactive)'),
  ('O=[N+]([O-])/C(C(Cl)=C(Cl)Cl)=C(\N1CCCCC1)n1cncn1', 'RXF 393', '6.64 µM (inactive)'),
  ('C/C(=N\NS(=O)(=O)c1ccc(C)cc1)C(CN1CCOCC1)C(c1ccccc1)c1c(O)c2ccccc2oc1=O (configuration not stated)', 'RXF 393', '68.2 µM (inactive)'),
  ('NC(=O)C(=CNC(=S)Nc1ccc(S(=O)(=O)Nc2ccccn2)cc1)C(N)=O', 'RXF 393', '> 100 µM (inactive)'),
  ('CCN(CC)CC(C(=O)Nc1c(C)cccc1C)/C(C)=N\NC(=O)C[N+](C)(C)C (configuration not stated)', 'RXF 393', '> 100 µM (inactive)');

---

Each item that follows carries a reported GI50.
- System: TK-10
- EXPERIMENT NOTES: NCI tumour cell line growth inhibition, 48 h
Activity calls are given as the source filed them. Rule as the data show it: active = GI50 up to about 1.1 µM and inactive = higher.
EXPERIMENTAL READOUT: GI50

INSERT INTO assay_data (molecule, data_value) VALUES
  ('Fc1ccc(C(OCCN2CC3CC2CN3)c2ccc(F)cc2)cc1 (centres undefined)', '32.8 µM (inactive)'),
  ('COC(=O)C1=C(C)NC(=O)N2[C@@H](CCOCc3ccccc3)CC[C@@H]12', '> 50 µM (inactive)'),
  ('O=C(c1ccc(Cl)cc1)C(O)c1ccc(Cl)cc1 (centres undefined)', '63.4 µM (inactive)'),
  ('CCOC(=O)/C=C(\N=P(c1ccccc1)(c1ccccc1)c1ccccc1)C(F)(F)C(F)(F)C(F)(F)C(F)(F)C(F)(F)F', '> 100 µM (inactive)'),
  ('CC1=C(C#N)S(=O)(=O)c2c(oc(C)c2C)N1', '> 100 µM (inactive)'),
  ('O=C1C2CCCCC2C(=O)N1n1c(-c2ccccc2)n[nH]c1=O (centres undefined)', '> 100 µM (inactive)'),
  ('O=c1[nH]nc(Cc2ccccc2)n1/N=C/c1ccccc1Cl', '> 100 µM (inactive)'),
  ('CCN(CC)CCN(C)c1ccc(CO)c2c1c(=O)c1ccccc1[s+]2[O-] (centres undefined)', '16.9 µM (inactive)'),
  ('O=C(/C=C/c1ccc2c(c1)OCO2)NCCc1ccco1', '65.8 µM (inactive)'),
  ('CC(=O)NC1C(OCc2ccccc2)OC(CO)C(O)C1OCC(=O)N1CCCC1C(=O)N[C@@H](CCC(=O)NCCNCCNc1c2ccccc2nc2cccc([N+](=O)[O-])c12)C(N)=O (some centres undefined)', '4.27 µM (inactive)'),
  ('CCC(=O)c1ccc2[nH]c3c(C)c4c(O)cc(C)nc4c(C)c3c2c1', '63.2 µM (inactive)'),
  ('CC1NOC(=O)C1/N=N/c1ccc(Cl)cc1Cl (centres undefined)', '23.8 µM (inactive)'),
  ('O=c1ccn2n1Cc1ccccc1C2', '> 100 µM (inactive)'),
  ('CC(C)C(OC(=O)c1cc(NC(=S)c2ccccc2)ccc1Cl)C(C)C', '21.5 µM (inactive)'),
  ('O=C(O)c1cc2cc(c1)/N=C/c1ccccc1OCc1cccc(n1)COc1ccccc1/C=N/2', '13.6 µM (inactive)'),
  ('c1ccc2c(c1)c1c(n2CCOCCN2CCCCC2)CCCC1', '14.3 µM (inactive)'),
  ('CCOC(=O)C(=Cc1ccc(C(=O)OC)cc1)C(=O)OCC', '2.88 µM (inactive)'),
  ('c1ccc(CN[C@]23C4C5CC6C7C5C2C7[C@@](NCc2ccccc2)(C64)N3Cc2ccccc2)cc1 (some centres undefined)', '> 100 µM (inactive)'),
  ('Oc1ccc[n+](Cc2ccccc2)c1', '> 100 µM (inactive)'),
  ('NC(=O)c1ncn(C2OC(CO)C(O)C2O)c1NC(=S)NC(=O)c1ccccc1 (centres undefined)', '> 100 µM (inactive)'),
  ('Nn1c(S)nnc1NNC(=O)C(=O)Nc1cc(Cl)c(Cl)cc1Cl', '> 100 µM (inactive)'),
  ('COc1cc2c(NCCN(C)C)nc3c4cc5c(cc4ccc3c2cc1OC)OCO5', '2.72 µM (inactive)'),
  ('O=S(=O)(O)SCCNCCCCCC1CCCCC1', '9.38 µM (inactive)'),
  ('Cc1ccc(/C=C2\NC(=S)NC2=O)cc1', '> 100 µM (inactive)'),
  ('Cc1ccc(NC(=O)CC/C(CC(=O)C(C)(C)C)=N/NC(=O)C[N+](C)(C)C)cc1C', '> 100 µM (inactive)'),
  ('Cn1cc(S(=O)(=O)NC(=O)Nc2ccc(Cl)cc2)c(=O)c2ccc(Cl)cc21', '> 100 µM (inactive)'),
  ('COC(=O)c1cc(/C=C2\Cc3cc4c(cc3C2=O)CCC4)cc2c1CCC2', '> 100 µM (inactive)'),
  ('Cc1c(S(=O)(=O)N/C(=N\O)Nc2ccc(Cl)c(Cl)c2)sc2ccc(Cl)cc12', '17.7 µM (inactive)'),
  ('O=C(C(=O)c1cc2ccccc2[nH]1)c1cc2ccccc2[nH]1', '> 347 µM (inactive)'),
  ('C/C(=N\NC(=S)N1CCC(N2CCCCC2)CC1)c1ccccn1', '2.38 µM (inactive)'),
  ('C1CN2CCN3CCN4CCN1[PH]243', '> 100 µM (inactive)'),
  ('Nc1nc(Cl)c2ncn(Cc3ccccc3CCl)c2n1', '17.7 µM (inactive)'),
  ('CN1CCN(CCNc2ccc(CO)c3sc4ccccc4c(=O)c23)CC1', '18.3 µM (inactive)'),
  ('COC1/C=C/OC2(C)Oc3c(C)c(O)c4c(c3C2=O)C(=O)C=C(NC(=O)/C(C)=C\C=C\C(C)C(OC=O)C(C)C(O)C(C)C(OC(C)=O)C1C)C4=O (centres undefined)', '16.6 µM (inactive)');

Source listed as ChEMBL document CHEMBL1201862.
